Let's look at some compounds and their measured Δ Systolic blood pressure (mmHg) 24 hrs.
- System: spontaneously hypertensive rats (SHRs)
- ASSAY_EXPLANATION: Antihypertensive activity in vivo in conscious spontaneously hypertensive rats
- Set-up: species or system rat
- APPLIED_CONDITIONS: SHR, 10 mpk po single dose, 24 hrs, delta vs baseline; telemetry (EXP 3174: tail-cuff method)
Write it as a number; the unit mmHg goes unstated.

Some solved cases for reference:
CCCCc1nc(Cl)c(C(=O)N[C@@H](Cc2ccccc2)C(=O)OCCCCO[N+](=O)[O-])n1Cc1ccc(-c2ccccc2-c2nnn[nH]2)cc1 [EX. 6] :: −13
CCCCc1nc(Cl)c(C(=O)NCC(=O)NCCCCO[N+](=O)[O-])n1Cc1ccc(-c2ccccc2-c2nnn[nH]2)cc1 [EX. 11] :: −17

Give the measured Δ Systolic blood pressure (mmHg) 24 hrs of CCCCc1nc(Cl)c(C(=O)NCC(=O)OCCCCO[N+](=O)[O-])n1Cc1ccc(-c2ccccc2-c2nnn[nH]2)cc1 [EX. 5] . −11

How about CCCCc1nc(Cl)c(C(=O)O)n1Cc1ccc(-c2ccccc2-c2nn[nH]n2)cc1 [EXP 3174, reference compound] ? 2

How about this compound: CCCCc1nc(Cl)c(C(=O)N[C@@H](CCC(=O)OCCCCO[N+](=O)[O-])C(=O)OCCCCO[N+](=O)[O-])n1Cc1ccc(-c2ccccc2-c2nn[nH]n2)cc1 [EX. 10] −11
